Experiment: Antiproliferative activity against HEK293 cells after 72 hrs by CCK8 assay
Type: cell-based
Conditions: Homo sapiens, HEK293, 72 h
Counter-ions that a name gives are not always drawn.
Quantity kind: IC50 (nM)
Reply numerically in nM, unit not repeated.

[
  {
    "Compound": "COc1cc([C@@H]2c3cc4c(cc3[C@@H](O[C@@H]3O[C@@H]5CO[C@@H](C)O[C@H]5[C@H](O)[C@H]3O)[C@H]3COC(=O)[C@H]23)OCO4)cc(OC)c1O [ETOPOSIDE]",
    "Unit text": "nM",
    "IC50": 1740
  }
]

The compound COc1cccc2c1C(=O)c1c(O)c3c(c(O)c1C2=O)C[C@@](O)(C(=O)CO)C[C@@H]3O[C@H]1C[C@H](N)[C@H](O)[C@H](C)O1 [DOXORUBICIN HYDROCHLORIDE] showed IC50 equal to 4960

Just so you know, measured IC50 for Oc1ccc(-c2cc(-c3ccco3)nc3c2Cc2ccccc2-3)cc1 came out at 3470

According to the records, this compound CC[C@@]1(O)C(=O)OCc2c1cc1n(c2=O)Cc2cc3ccccc3nc2-1 displays IC50 of 830
